All figures here come from the supplement of paper PMC10724198.

Tested on: Saccharomyces cerevisiae;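 further: PSI is a weighted mean of sequencing reads over stability bins, variants kept only with over 10 reads, mCherry proximal and sfGFP distal, peptide attached via GGGS linker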
Experiment Description: protein stability index of tFT-peptide fusion (C-terminal peptide) (PSI (0-1 scale)); higher = more stable (slower turnover)
Cond: genetic background: doa10 deletion; temperature: 30 C
Outcome Measure: protein stability index

chain_sequence=IWRGGSAVPMIC recorded_result=0.167
chain_sequence=SGVVWFYIFCLS recorded_result=0.254
chain_sequence=VSWWRGVYVVLF recorded_result=0.342
chain_sequence=CYRRCQAFLVLV recorded_result=0.134
chain_sequence=VRRFNVLLYVRG recorded_result=0.324
chain_sequence=GWRFCVFIYVHR recorded_result=0.213
chain_sequence=APLSPLLPPFLC recorded_result=0.348
chain_sequence=HFASPPAPRSNL recorded_result=0.785
chain_sequence=FLFQYLCIISSL recorded_result=0.0866
chain_sequence=CGWFVSVGWRLG recorded_result=0.228
chain_sequence=AMRTIFFPAFVS recorded_result=0.158
chain_sequence=FLGPMRVLVSSV recorded_result=0.401
chain_sequence=WVFYAVRWRTWN recorded_result=0.0632
chain_sequence=IPGGRPLLVEVR recorded_result=0.216
chain_sequence=RIRLYWVLRRLG recorded_result=0.0772
chain_sequence=LVLVVFCPLWFW recorded_result=0.442
chain_sequence=CFFILSLMVVVI recorded_result=0.0944
chain_sequence=LCSLPIVCCFFL recorded_result=0.424
chain_sequence=VGGLGWCWVCMA recorded_result=0.132
chain_sequence=FWHGRCPGLYLV recorded_result=0.163
chain_sequence=LCVGFISFCFCL recorded_result=0.434
chain_sequence=LMLISFLFLSLL recorded_result=0.568
chain_sequence=PVLPPPLLLCPC recorded_result=0.0972
chain_sequence=YWFWLLIGSFSC recorded_result=0.36
chain_sequence=YVSLPFVVWWFC recorded_result=0.184
chain_sequence=GINHLSLKLRLF recorded_result=0.109
chain_sequence=DGYLFKGIWFFV recorded_result=0.145
chain_sequence=PWEYSSQLVLVI recorded_result=0.155
chain_sequence=HWVRLSSLAFVS recorded_result=0.202
chain_sequence=WVLSRAAFVFFF recorded_result=0.322
chain_sequence=SDVLVVWVFFCR recorded_result=0.216
chain_sequence=PPVPRLLPVLAP recorded_result=0.348
chain_sequence=VSLIYKTIKNRV recorded_result=0.396
chain_sequence=FVVLVFMLGSVC recorded_result=0.234
chain_sequence=LQNCRVSVLLGW recorded_result=0.229
chain_sequence=YLGSPLSLMLVA recorded_result=0.332
chain_sequence=IFFYQLYVDRLC recorded_result=0.0857
chain_sequence=FLYSVLLICKFI recorded_result=0.118
chain_sequence=WVVLVCGFVLLG recorded_result=0.22
chain_sequence=VVFVFIDLGLCV recorded_result=0.188
chain_sequence=PSPFHSFYLRLI recorded_result=0.263
